# Test system: melanoma cells
# EXPERIMENTAL_DETAILS: SRB cytotoxicity assay, statements not tied to one cell line
# Type: cell-based, human
# DETAILS: Homo sapiens; summary over the cell lines; read-out: IC50 in the in vitro assay (cell line not given)
pIC50: −log10 of the molar value.
Parameter: pIC50. Scope: all listed entries.

# get_value(readout='pIC50', item= CCCCCCCCCCCCCCCCNC(=O)[C@@H]1CSC(c2ccccc2NC(C)=O)N1C (stereo partly shown) [Compound 330] )
< 4.70

Entry CCCCCCCCCCCCCCNC(=O)[C@@H]1CSC(c2ccccc2)=N1 [Compound 328] please
< 4.70

Entry CN(C)/N=N/c1[nH]cnc1C(N)=O [DTIC, dacarbazine, reference compound] please
< 4.00

Entry CCCCCCCCCCCCCCNC(=O)[C@@H]1CSC(c2ccc(OC)c(OC)c2)=N1 [Compound 329] please
< 4.70

From: patent US20080255213A1
